The origin of these recorded values is ChEMBL document CHEMBL1130330.

Tested on: PC-3
assay.remarks: The concentration to inhibit colony formation of PC3 human tumor cell lines
Type: functional
quantity: Inhibition (%)
Numbers only here, please. The scale is %.

* CC(C)C[C@H](NC(=O)CNC(=O)[C@H](Cc1ccc(O)cc1)NC(=O)[C@H](CO)NC(=O)[C@H](Cc1c[nH]c2ccccc12)NC(=O)[C@H](Cc1c[nH]cn1)NC(=O)[C@@H]1CCC(=O)N1)C(=O)N[C@@H](CCCN=C(N)N)C(=O)N1CCC[C@H]1C(=O)NCC(N)=O | 15

Consider now this further molecule.
input: Report value: Inhibition, system: PC-3, molecule: NCCCC[C@H](NC(=O)[C@H](Cc1c[nH]c2ccccc12)NC(=O)[C@H](CCC(=O)O)NC(=O)[C@H](Cc1c[nH]cn1)NC(=O)[C@H](CO)NC(=O)[C@H](Cc1c[nH]c2ccccc12)NC(=O)[C@H](Cc1c[nH]cn1)NC(=O)[C@@H]1CCC(=O)N1)C(=O)N1CCC[C@H]1C(=O)NCC(N)=O
output: 20

---

Test system: Ishikawa
assay.remarks: The concentration to inhibit colony formation of Ishikawa human tumor cell lines
Type: functional
Square brackets hold non-standard residues; d marks the D form. Peptide text beside a SMILES is read from it. pGlu = O=C1CC[C@@H](C(=O)O)N1
// values below are reported Inhibition
API: value field is a number in %; no unit string.

• NCCCC[C@H](NC(=O)[C@H](Cc1c[nH]c2ccccc12)NC(=O)[C@H](CC(=O)O)NC(=O)[C@H](Cc1c[nH]cn1)NC(=O)[C@H](CO)NC(=O)[C@H](Cc1c[nH]c2ccccc12)NC(=O)[C@H](Cc1c[nH]cn1)NC(=O)[C@@H]1CCC(=O)N1)C(=O)N1CC=C[C@H]1C(=O)NCC(N)=O = 21

Please look at the following compound next.
input: Answer with the recorded Inhibition for the compound listed here: CCNC(=O)[C@@H]1CCCN1C(=O)[C@H](CCCCN)NC(=O)[C@H](Cc1c[nH]c2ccccc12)NC(=O)[C@H](CC(=O)O)NC(=O)[C@H](Cc1c[nH]cn1)NC(=O)[C@H](CO)NC(=O)[C@H](Cc1c[nH]c2ccccc12)NC(=O)[C@H](Cc1c[nH]cn1)NC(=O)[C@@H]1CCC(=O)N1 ([pGlu]HWSHDWKP-NHEt)
output: 13

---

Form field: Inhibition (one value per entry).
System: PC-3
assay.remarks: The concentration to inhibit cell proliferation of PC3 human tumor cell lines using the sulforhodamine B assay
Format: functional
Square brackets hold non-standard residues; d marks the D form. Peptide text beside a SMILES is read from it. pGlu = O=C1CC[C@@H](C(=O)O)N1
Unit % implied. Number only.

Recorded results for 2 molecules are shown here.
• CCNC(=O)[C@@H]1CCCN1C(=O)[C@H](CCCCN)NC(=O)[C@H](Cc1c[nH]c2ccccc12)NC(=O)[C@H](CC(=O)O)NC(=O)[C@H](Cc1c[nH]cn1)NC(=O)[C@H](CO)NC(=O)[C@H](Cc1c[nH]c2ccccc12)NC(=O)[C@H](Cc1c[nH]cn1)NC(=O)[C@@H]1CCC(=O)N1 ([pGlu]HWSHDWKP-NHEt) = 15
• NC(=O)CNC(=O)[C@@H]1CCCN1C(=O)[C@@H]1CCCCNC(=O)C[C@H](NC(=O)[C@H](Cc2c[nH]cn2)NC(=O)[C@H](CO)NC(=O)[C@H](Cc2c[nH]c3ccccc23)NC(=O)[C@H](Cc2c[nH]cn2)NC(=O)[C@@H]2CCC(=O)N2)C(=O)N[C@@H](Cc2c[nH]c3ccccc23)C(=O)N1 = 11

input: Using known records, supply Inhibition for NCCCC[C@H](NC(=O)[C@H](Cc1c[nH]c2ccccc12)NC(=O)[C@H](CC(=O)O)NC(=O)[C@H](Cc1c[nH]cn1)NC(=O)[C@H](CO)NC(=O)[C@H](Cc1c[nH]c2ccccc12)NC(=O)[C@H](Cc1c[nH]cn1)NC(=O)[C@@H]1CCC(=O)N1)C(=O)N1CC=C[C@H]1C(=O)NCC(N)=O
output: 14
